- experimental target: T1, human NKG2D expressed on cells (human, UniProt P26718 1-216)
- T1 construct: the cell type is named under assay; also called NKG2D on NK92 cells; HEK293T human NKG2D
- T1 chain: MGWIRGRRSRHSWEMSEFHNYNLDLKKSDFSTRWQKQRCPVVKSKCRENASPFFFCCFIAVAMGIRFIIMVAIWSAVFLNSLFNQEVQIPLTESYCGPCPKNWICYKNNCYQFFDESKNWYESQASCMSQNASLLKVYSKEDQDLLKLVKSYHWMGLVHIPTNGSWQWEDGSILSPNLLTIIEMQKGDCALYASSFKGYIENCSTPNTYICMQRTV
- protocol description: flow cytometry; expanded human γδ T cells
binders and their reported EC50
# number only, unit nM dropped from output

binder	EC50 / nM
anti-NKG2D antibody clone 013 (antibody, V domains shown, From transgenic rabbits) VH: EQSGGGAGGGLVKPGGSLELCCKASGFDFSIYWMSWVRQSPGKGLEWIGRIYGGSSDYTAYASWVNGRFTLSRDIDQSTGCLQLNSLTAADTAMYYCVRLNPSFSRSFDYWGQGTLVTVSS VL: DIQMTQSPSSVSASVGDRVTITCRASQGIFSWLVWYQQKPGKAPELLMYGASTLQSGVPSRFSGSGSGTDFTLTISSLQPEDFATYYCQQGYSTPYTFGQGTKVEIK	133

Prompt: Record request: EC50 value, item anti-NKG2D antibody clone 230 (antibody, V domains shown, From transgenic rabbits) VH: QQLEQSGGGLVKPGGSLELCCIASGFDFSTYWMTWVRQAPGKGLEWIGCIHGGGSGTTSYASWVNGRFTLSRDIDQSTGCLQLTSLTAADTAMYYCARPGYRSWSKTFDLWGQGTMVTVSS VL: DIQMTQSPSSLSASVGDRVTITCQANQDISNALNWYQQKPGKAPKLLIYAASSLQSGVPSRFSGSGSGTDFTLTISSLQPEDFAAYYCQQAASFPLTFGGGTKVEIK
Response: 3.31

Prompt: Record request: EC50 value, item anti-NKG2D antibody clone 395 (antibody, V domains shown, From transgenic rabbits; rabbit VH, human VL) VH: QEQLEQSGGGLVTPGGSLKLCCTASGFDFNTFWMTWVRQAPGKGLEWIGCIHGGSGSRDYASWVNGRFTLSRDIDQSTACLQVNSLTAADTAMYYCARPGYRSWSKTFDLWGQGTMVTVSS VL: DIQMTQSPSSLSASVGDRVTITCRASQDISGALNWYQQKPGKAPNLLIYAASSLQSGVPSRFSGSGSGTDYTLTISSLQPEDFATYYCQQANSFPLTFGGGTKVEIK
Response: 1.94

Values from patent US20240067734A1
